Data origin, for the record: ChEMBL document CHEMBL1125034

- assayed-target: Neutrophil elastase (Homo sapiens, UniProt P08246)
- Sequence (P08246 whole entry): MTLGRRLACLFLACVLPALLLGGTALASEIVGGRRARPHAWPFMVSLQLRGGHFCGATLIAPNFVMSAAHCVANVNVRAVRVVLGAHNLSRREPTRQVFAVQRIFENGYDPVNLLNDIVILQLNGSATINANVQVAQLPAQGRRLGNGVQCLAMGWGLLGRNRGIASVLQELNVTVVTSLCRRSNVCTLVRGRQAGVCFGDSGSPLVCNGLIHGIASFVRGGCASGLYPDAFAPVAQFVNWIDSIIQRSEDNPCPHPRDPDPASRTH
- experiment-summary: Inhibition of human leukocyte elastase
result-type: Ki

compound	test-value
COc1cc2nc(OCc3ccccc3)oc(=O)c2cc1OC	933 nM

Request the reported Ki associated with `O=c1oc(NCc2ccccc2)nc2ccccc12` 955 nM

Now consider `O=c1oc(NC2CCCCC2)nc2ccccc12` . 112 nM

Would you mind doing `Nc1ccc(CNc2nc3ccccc3c(=O)o2)cc1` as well? 1230 nM

Same question, `O=c1oc(CBr)nc2ccccc12` this time 955 nM

Input `Cc1cccc2ncoc(=O)c12` 219 nM

# iterate: `CCCCCCCCNc1nc2ccccc2c(=O)o1` 31600 nM

Also `CCOc1nc2cccc(C(Br)Br)c2c(=O)o1` ? 0.468 nM

Now try CCC(C)CNc1nc2cccc(C)c2c(=O)o1 (stereo not drawn) . 661 nM
